Study system: isolated kinase domain of the human c-kit receptor (Homo sapiens (Human))
Experimental details: c-Kit Fluorescence Polarization Kinase Assay
Details: 1 nM c-kit, 50 uM ATP, 45 minutes at room temperature; uncertainty +10%
Structures can show the parent of a compound that is named as a salt.
Assay metric: IC50 (µM)

{"Molecule": "CC1(C)CC=C(c2nc(C3CCN(CCS(C)(=O)=O)CC3)ccc2NC(=O)c2nc(C#N)c[nH]2)CC1 [Compound 56, trifluoroacetic acid salt]", "Study system": "isolated kinase domain of the human c-kit receptor (Homo sapiens (Human))", "Assay metric": "IC50", "Experimental result": 0.039}

(A) C[C@@H]1CC(c2ccc(NC(=O)c3ncc(C#N)[nH]3)c(C3=CCCCC3)c2)C[C@H](C)N1 (some centres unmarked) [Compound 51a, bis trifluoroacetic acid salt]
(B) N#Cc1c[nH]c(C(=O)Nc2ccc(C3CCNCC3)cc2C2=CCCCC2)c1 [Compound 13, trifluoroacetic acid salt]
(C) N#Cc1c[nH]c(C(=O)Nc2ccc(C3CCN(C(=O)CCN4CCOCC4)CC3)cc2C2=CCCCC2)n1
Order the items by recorded IC50; the first position goes to the largest value. Write out the labels following the order that was asked for. B, C, A

* * *

Study system: isolated kinase domain of the human c-kit receptor (Homo sapiens (Human), UniProt P10721)
Sequence (P10721 589-937): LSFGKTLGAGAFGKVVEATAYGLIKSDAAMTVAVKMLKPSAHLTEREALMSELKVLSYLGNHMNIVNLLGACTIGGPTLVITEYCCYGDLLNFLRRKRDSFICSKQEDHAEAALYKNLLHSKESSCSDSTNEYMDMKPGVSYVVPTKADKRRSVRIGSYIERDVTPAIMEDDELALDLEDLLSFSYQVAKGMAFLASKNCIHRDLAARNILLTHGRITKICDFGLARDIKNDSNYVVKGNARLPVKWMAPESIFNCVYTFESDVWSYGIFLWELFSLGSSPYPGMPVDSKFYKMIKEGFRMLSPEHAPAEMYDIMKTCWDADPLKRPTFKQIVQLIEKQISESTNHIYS
Experimental details: c-Kit Fluorescence Polarization Kinase Assay
Details: 1 nM c-kit, 50 uM ATP, 45 minutes at room temperature; uncertainty +10%
Counter-ions that a name gives are not always drawn.
Assay metric: IC50 (nM)

// known answers, use as guide
{"Compound": "N#Cc1c[nH]c(C(=O)Nc2ccc(C3CCN(Cc4ccccn4)CC3)cc2C2=CCCCC2)n1 [Compound 21, trifluoroacetic acid salt]", "IC50 [nM]": 50}
{"Compound": "N#Cc1c[nH]c(C(=O)Nc2ccc(C3CCN(C(=O)c4cc[n+]([O-])cc4)CC3)cc2C2=CCCCC2)n1", "IC50 [nM]": 35}

(A) N#Cc1c[nH]c(C(=O)Nc2ccc(C3CCN(CC(=O)O)CC3)cc2C2=CCCCC2)n1 [Compound 47, trifluoroacetic acid salt]
(B) CN(C)CC(=O)N1CCC(c2ccc(NC(=O)c3nc(C#N)c[nH]3)c(C3=CCC(C)(C)CC3)n2)CC1 [Compound 55, trifluoroacetic acid salt]
(C) N#Cc1c[nH]c(C(=O)Nc2ccc(C3CCN(CCO)CC3)cc2C2=CCCCC2)n1 [Compound 26, trifluoroacetic acid salt]
Hey, quick one: sort these by IC50, top value first please. Put the labels in the requested order and write them down. A, C, B

Numbers sourced from patent US8697716B2.
